- target.entity: PI3K alfa (Homo sapiens, UniProt P42336)
- Construct: His tag (C); made in house; host or cells: baculovirus BV1075; Tn5 (Trichoplusia ni) or TiniPro insect cells
- Sequence (P42336 with tags, fused parts or gaps limits assumed): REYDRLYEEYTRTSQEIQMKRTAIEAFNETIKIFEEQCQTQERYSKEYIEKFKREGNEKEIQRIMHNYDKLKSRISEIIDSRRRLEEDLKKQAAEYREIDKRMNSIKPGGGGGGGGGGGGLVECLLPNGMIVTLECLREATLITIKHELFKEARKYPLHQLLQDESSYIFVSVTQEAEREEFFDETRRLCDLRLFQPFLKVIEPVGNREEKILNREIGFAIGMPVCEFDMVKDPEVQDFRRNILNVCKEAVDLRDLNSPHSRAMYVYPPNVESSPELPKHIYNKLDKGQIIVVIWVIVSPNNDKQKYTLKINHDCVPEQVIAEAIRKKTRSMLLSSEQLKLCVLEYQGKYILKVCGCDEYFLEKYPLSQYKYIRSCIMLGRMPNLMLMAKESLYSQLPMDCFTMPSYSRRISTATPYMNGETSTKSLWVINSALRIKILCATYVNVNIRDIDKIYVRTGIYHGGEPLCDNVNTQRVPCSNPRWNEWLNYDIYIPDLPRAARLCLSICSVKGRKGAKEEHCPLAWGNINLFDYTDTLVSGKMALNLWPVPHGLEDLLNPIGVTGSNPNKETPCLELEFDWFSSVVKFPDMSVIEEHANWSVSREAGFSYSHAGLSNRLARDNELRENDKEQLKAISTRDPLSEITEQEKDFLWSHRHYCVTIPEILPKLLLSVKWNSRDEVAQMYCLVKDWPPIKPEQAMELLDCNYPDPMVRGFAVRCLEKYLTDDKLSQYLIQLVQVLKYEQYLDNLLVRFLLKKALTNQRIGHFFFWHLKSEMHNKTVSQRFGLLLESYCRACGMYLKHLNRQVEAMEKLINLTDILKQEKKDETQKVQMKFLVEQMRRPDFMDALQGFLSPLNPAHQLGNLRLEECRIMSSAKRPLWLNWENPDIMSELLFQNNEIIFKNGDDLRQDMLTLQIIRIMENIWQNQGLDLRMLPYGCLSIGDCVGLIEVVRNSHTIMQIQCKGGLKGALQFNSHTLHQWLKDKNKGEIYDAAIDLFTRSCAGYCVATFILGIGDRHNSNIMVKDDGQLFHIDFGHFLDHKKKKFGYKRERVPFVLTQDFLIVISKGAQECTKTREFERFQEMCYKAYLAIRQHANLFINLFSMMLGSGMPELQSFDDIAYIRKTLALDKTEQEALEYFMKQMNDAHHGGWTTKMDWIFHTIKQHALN
- test: PI3K alpha kinase assay (Kinase-Glo luminescence)
- Assay type: biochemical
- condition.parameters: read-out: PI3Kalfa/IC50
pIC50: −log10 of the molar value.
// class 0 strictly below 7 in pIC50; class 1 otherwise

COc1ncccc1-n1c(=O)n(C)c2cnc3ccc(-c4ccc(C(N)=O)cc4)cc3c21 [Example 1.6] : class 1
Cc1cccnc1-n1c(=O)n(C)c2cnc3ccc(-c4ccc(C(N)=O)cc4)cc3c21 [Example 3.3] : class 1
CNC(=O)c1ccc(-c2ccc3ncc4c(c3c2)n(-c2ncccc2C)c(=O)n4C)cc1 [Example 3.5] : class 1
CN(C)c1ccc(-c2ccc3ncc4c(c3c2)n(-c2cccnc2)c(=O)n4C)cn1 [Example 5.3] : class 1

Task: Does the reported pIC50 for CNc1ncc(-c2ccc3ncc4c(c3c2)n(-c2cccnc2C)c(=O)n4C)cn1 [Example 2.2] fall at or above the 7 mark?
Result: class 1

Task: Does the reported pIC50 for Cc1ncccc1-n1c(=O)n(C)c2cnc3ccc(-c4cnc5[nH]ccc5c4)cc3c21 [Example 2.8] fall at or above the 7 mark?
Result: class 1

Task: Does the reported pIC50 for COc1nc(N2CCNCC2)ccc1-n1c(=O)n(C)c2cnc3ccc(-c4cnc(N)c(C(F)(F)F)c4)cc3c21 [Example 9.2] fall at or above the 7 mark?
Result: class 1

Task: Does the reported pIC50 for Cc1ccncc1-n1c(=O)n(C)c2cnc3ccc(-c4ccc(CO)nc4)cc3c21 [Example 4.1] fall at or above the 7 mark?
Result: class 0

Task: Does the reported pIC50 for Cc1cccnc1-n1c(=O)n(C)c2cnc3ccc(-c4cnc(N)c(C(F)(F)F)c4)cc3c21 [Example 3.12] fall at or above the 7 mark?
Result: class 1

Task: Does the reported pIC50 for COc1ccc(-c2ccc3ncc4c(c3c2)n(-c2ncccc2C)c(=O)n4C)cc1OC [Example 3.10] fall at or above the 7 mark?
Result: class 1

Task: Does the reported pIC50 for CCOc1ncc(-c2ccc3ncc4c(c3c2)n(-c2ncccc2C)c(=O)n4C)cn1 [Example 3.1] fall at or above the 7 mark?
Result: class 0

Task: Does the reported pIC50 for CCOc1ccc(-c2ccc3ncc4c(c3c2)n(-c2cnccc2C)c(=O)n4C)cn1 [Example 4.2] fall at or above the 7 mark?
Result: class 0

Task: Does the reported pIC50 for COc1ccc(-n2c(=O)n(C)c3cnc4ccc(-c5cnc(N)c(C(F)(F)F)c5)cc4c32)c(OC)n1 [Example 8.1] fall at or above the 7 mark?
Result: class 1

Task: Does the reported pIC50 for CCOc1ccc(-c2ccc3ncc4c(c3c2)n(-c2cccnc2OC)c(=O)n4C)cn1 [Example 1.5] fall at or above the 7 mark?
Result: class 1

Task: Does the reported pIC50 for Cc1nc(F)ccc1-n1c(=O)n(C)c2cnc3ccc(-c4cnc5c(ccn5C)c4)cc3c21 [Example 7.2] fall at or above the 7 mark?
Result: class 1

Task: Does the reported pIC50 for CNc1ccc(-c2ccc3ncc4c(c3c2)n(-c2cccnc2OC)c(=O)n4C)cn1 [Example 1.4] fall at or above the 7 mark?
Result: class 1

Task: Does the reported pIC50 for CNc1ccc(-c2ccc3ncc4c(c3c2)n(-c2cccnc2C)c(=O)n4C)cn1 [Example 2.13] fall at or above the 7 mark?
Result: class 1

====

Entries and their pIC50 values follow.
- target.entity: PI3K delta (Homo sapiens, UniProt O00329)
- Construct: for the full-length p110-d subunit are generated and fused by overlapping PCR; His tag (C); made in house; host or cells: baculovirus BV1060; Tn5 (Trichoplusia ni) or TiniPro insect cells
- Sequence (O00329 with tags, fused parts or gaps limits assumed): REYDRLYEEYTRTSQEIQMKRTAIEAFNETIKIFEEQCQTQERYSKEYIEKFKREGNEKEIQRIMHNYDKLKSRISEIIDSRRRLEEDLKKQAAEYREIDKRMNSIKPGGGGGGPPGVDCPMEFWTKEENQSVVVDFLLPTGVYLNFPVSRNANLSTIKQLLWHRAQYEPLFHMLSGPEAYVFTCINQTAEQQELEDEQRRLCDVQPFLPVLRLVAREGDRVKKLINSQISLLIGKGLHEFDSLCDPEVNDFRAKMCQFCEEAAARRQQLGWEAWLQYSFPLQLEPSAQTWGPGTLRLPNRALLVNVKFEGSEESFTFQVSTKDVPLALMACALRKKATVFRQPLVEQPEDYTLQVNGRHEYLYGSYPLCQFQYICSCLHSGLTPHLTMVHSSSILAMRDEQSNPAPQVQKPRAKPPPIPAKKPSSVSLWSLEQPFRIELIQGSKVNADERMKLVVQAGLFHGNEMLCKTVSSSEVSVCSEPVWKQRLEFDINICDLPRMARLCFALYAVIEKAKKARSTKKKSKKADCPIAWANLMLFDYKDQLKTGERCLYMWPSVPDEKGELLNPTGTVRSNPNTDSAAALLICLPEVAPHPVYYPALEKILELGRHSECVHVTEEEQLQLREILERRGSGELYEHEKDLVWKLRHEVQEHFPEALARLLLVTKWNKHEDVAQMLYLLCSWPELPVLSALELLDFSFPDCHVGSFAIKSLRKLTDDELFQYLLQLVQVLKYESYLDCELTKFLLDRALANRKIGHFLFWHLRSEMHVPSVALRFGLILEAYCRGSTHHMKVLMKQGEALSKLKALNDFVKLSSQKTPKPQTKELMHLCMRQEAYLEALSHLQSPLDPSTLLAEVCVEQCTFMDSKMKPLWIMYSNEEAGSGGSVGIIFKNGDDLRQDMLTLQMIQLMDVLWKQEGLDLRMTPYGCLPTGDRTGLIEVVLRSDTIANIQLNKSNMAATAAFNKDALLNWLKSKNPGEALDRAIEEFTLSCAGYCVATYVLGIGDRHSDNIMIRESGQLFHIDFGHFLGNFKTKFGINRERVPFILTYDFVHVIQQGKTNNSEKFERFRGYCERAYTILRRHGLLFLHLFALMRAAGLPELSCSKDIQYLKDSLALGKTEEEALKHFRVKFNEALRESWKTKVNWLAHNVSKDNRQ
- test: PI3K delta kinase assay (Kinase-Glo luminescence)
- Type: biochemical
- condition.parameters: read-out: EPK_PI3Kdelta/IC50
Scale: negative log10 of molar concentration, which is what pIC50 denotes.

Given item `COCCN(C)c1ccc(-n2c(=O)n(C)c3cnc4ccc(-c5cnc(CO)c(OC)c5)cc4c32)c(C)n1` , the value recorded as its pIC50 is 7.40

Given item `CCNc1cc(-c2ccc3ncc4c(c3c2)n(-c2ccc(OC)nc2C)c(=O)n4C)cnc1C` , the value recorded as its pIC50 is 8.52

Given item `Cc1cc(F)ncc1-n1c(=O)n(C)c2cnc3ccc(-c4cnc(N)c(C(F)(F)F)c4)cc3c21` , the value recorded as its pIC50 is 7.57

Given item `COc1ccc(-n2c(=O)n(C)c3cnc4ccc(-c5cncc(N6CCC6)c5)cc4c32)c(OC)n1` , the value recorded as its pIC50 is 6.90

Given item `COCCN(C)c1ccc(-n2c(=O)n(C)c3cnc4ccc(-c5cnc(N)c(C(F)(F)F)c5)cc4c32)c(C)n1` , the value recorded as its pIC50 is 8.15

Given item `CCOc1cc(-c2ccc3ncc4c(c3c2)n(-c2ccc(N3CCCC3)nc2C)c(=O)n4C)cnc1COC` , the value recorded as its pIC50 is 7.37

Given item `Cc1nc(N2CC(F)(F)C(F)(F)C2)ccc1-n1c(=O)n(C)c2cnc3ccc(-c4cncc(C(C)(C)O)c4)cc3c21` , the value recorded as its pIC50 is 8.30

====

- target.entity: PI3K delta (Homo sapiens, UniProt O00329)
- Construct: for the full-length p110-d subunit are generated and fused by overlapping PCR; His tag (C); made in house; host or cells: baculovirus BV1060; Tn5 (Trichoplusia ni) or TiniPro insect cells
- test: PI3K delta kinase assay (Kinase-Glo luminescence)
- Type: biochemical
- condition.parameters: read-out: PI3Kdelta/IC50
measurement.kind: pIC50
Scale: negative log10 of molar concentration, which is what pIC50 denotes.

The following molecules have reported results that may help.
COc1ccc(-c2ccc3ncc4c(c3c2)n(-c2cnccc2C)c(=O)n4C)cn1 : 6.92
COc1ccc(-c2ccc3ncc4c(c3c2)n(-c2cccnc2C)c(=O)n4C)cn1 : 7.49
CNc1ccc(-c2ccc3ncc4c(c3c2)n(-c2ccc(F)nc2C)c(=O)n4C)cn1 : 7.68

Given item `COc1ncccc1-n1c(=O)n(C)c2cnc3ccc(-c4ccc(C(N)=O)cc4)cc3c21` , the value recorded as its pIC50 is 6.79

====

- Test system: S6 Ribosomal Protein phosphorylation Ser235/236 in TSC1 null mouse embryo fibroblast (MEF) cells
- test: Reverse protein array, S6 Ribosomal Protein phosphorylation in TSC1 null MEF cells
- Type: cell-based
- condition.parameters: 1 h, TSC1-/- MEFs, 60 minutes, read-out: p-S6 IC50
pIC50: −log10 of the molar value.
// Not satisfied strictly below 8 in pIC50; Satisfied otherwise

Cc1nc(N2CCC(O)C2)ccc1-n1c(=O)n(C)c2cnc3ccc(-c4cncc(OC(C)C)c4)cc3c21 (stereo not shown) [Example 27.1] : Satisfied

Task: Does the reported pIC50 for Cc1ccc(-n2c(=O)n(C)c3cnc4ccc(-c5cnc6c(ccn6C)c5)cc4c32)c(C)n1 [Example 14.7] fall at or above the 8 mark?
Result: Satisfied

Task: Does the reported pIC50 for Cc1nc(N2CC[C@H](O)C2)ccc1-n1c(=O)n(C)c2cnc3ccc(-c4cncc(OC(C)C)c4)cc3c21 [Example 32.8] fall at or above the 8 mark?
Result: Satisfied

Task: Does the reported pIC50 for CCOc1ccc(-c2ccc3ncc4c(c3c2)n(-c2ccc(NC(=O)COC)nc2C)c(=O)n4C)cn1 [Example 20.2] fall at or above the 8 mark?
Result: Not satisfied

Task: Does the reported pIC50 for CCOc1ccc(-c2ccc3ncc4c(c3c2)n(-c2ccc(OCCOC)nc2C)c(=O)n4C)cn1 [Example 13.1] fall at or above the 8 mark?
Result: Not satisfied

Task: Does the reported pIC50 for CCNc1cc(-c2ccc3ncc4c(c3c2)n(-c2ccc(F)nc2C)c(=O)n4C)cnc1CO [Example 7.9] fall at or above the 8 mark?
Result: Satisfied

====

- target.entity: mTOR (Homo sapiens, UniProt P42345)
- Construct: purchased Invitrogen Corporation (Carlsbad/Calif., USA) PV4753
- Sequence (P42345 1360-2549 limits assumed): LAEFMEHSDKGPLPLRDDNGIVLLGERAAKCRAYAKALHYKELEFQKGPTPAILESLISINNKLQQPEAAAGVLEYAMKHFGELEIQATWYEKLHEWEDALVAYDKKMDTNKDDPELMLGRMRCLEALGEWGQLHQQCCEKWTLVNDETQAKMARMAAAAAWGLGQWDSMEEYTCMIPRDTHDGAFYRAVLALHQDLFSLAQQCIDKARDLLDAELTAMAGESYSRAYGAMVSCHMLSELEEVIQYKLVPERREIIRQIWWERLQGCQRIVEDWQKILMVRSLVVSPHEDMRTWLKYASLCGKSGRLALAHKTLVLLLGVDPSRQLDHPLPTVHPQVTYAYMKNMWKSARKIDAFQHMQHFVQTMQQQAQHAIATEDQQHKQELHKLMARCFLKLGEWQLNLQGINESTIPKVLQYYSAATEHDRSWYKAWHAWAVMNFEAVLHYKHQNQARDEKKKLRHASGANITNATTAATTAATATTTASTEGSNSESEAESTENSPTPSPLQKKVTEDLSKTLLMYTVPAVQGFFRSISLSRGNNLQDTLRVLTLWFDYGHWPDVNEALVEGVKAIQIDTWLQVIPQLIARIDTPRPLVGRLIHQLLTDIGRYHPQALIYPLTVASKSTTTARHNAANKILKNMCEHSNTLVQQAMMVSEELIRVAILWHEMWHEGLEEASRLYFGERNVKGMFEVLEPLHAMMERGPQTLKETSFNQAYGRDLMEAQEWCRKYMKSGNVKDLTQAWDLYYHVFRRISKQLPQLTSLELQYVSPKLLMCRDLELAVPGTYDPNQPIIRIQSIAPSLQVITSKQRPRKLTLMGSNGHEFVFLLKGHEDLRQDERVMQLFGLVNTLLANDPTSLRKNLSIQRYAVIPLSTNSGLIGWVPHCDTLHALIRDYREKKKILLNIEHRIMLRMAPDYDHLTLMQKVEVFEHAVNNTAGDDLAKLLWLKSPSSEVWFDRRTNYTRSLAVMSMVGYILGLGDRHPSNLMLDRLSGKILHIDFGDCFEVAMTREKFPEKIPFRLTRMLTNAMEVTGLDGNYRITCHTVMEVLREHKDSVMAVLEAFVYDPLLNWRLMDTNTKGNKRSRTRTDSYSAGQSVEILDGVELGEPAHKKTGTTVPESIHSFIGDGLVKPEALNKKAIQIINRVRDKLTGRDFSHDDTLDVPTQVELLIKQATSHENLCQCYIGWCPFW
- test: Biochemical assay for m-TOR by TR-FRET
- condition.parameters: read-out: EPK_mTOR/IC50
- Text: Biochemical Assay for m-TOR by TR-FRET. Assay components are purchased from Invitrogen Corporation (Carlsbad/Calif., USA): GFP-4EBP1 (Cat. No. PV4759), Tb3+-α-p4EBP1 [pThr46] Antibody (Cat. No. PV4757), proprietary TR-FRET dilution buffer (Cat. No. PV3574), mTOR protein (Cat. No. PV4753). […]
measurement.kind: IC50 (nM)
State the answer as a number, implicitly in nM.

Cc1ncccc1-n1c(=O)n(C)c2cnc3ccc(-c4cncc(NC(C)C)c4)cc3c21 [Example 2.24] : 29
Cc1ccc(-n2c(=O)n(C)c3cnc4ccc(-c5cncc(NC(C)C)c5)cc4c32)c(C)n1 [Example 14.8] : 28
CNc1ccc(-c2ccc3ncc4c(c3c2)n(-c2ccc(N(C)CCOC)nc2C)c(=O)n4C)cn1 [Example 15.4] : 11
Cc1nc(N2CC(O)C2)ccc1-n1c(=O)n(C)c2cnc3ccc(-c4cncc(C(C)(C)O)c4)cc3c21 [Example 29.1] : 5

Attention now shifts to the item below.
Summary: CCNc1cc(-c2ccc3ncc4c(c3c2)n(-c2ccc(N(C)CCO)nc2C)c(=O)n4C)cnc1CO [Example 26.3] , mTOR (Homo sapiens, UniProt P42345), IC50 = 9

Where these numbers come from: patent US20100311714A1
